Test system: Gram-negative strains (E. coli CS109, K. pneumoniae)
procedureText: HT-SPOTi, cephalosporins with peptides
Format: cell-based, Escherichia coli; Klebsiella pneumoniae
conditionNotes: strain not given
property: levels of resistance to the cephalosporin with peptides

The cases that follow already have their levels of resistance to the cephalosporin with peptides on record.
CC1=C(C(=O)O)N2C(=O)[C@@H](NC(=O)[C@H](N)c3ccc(O)cc3)[C@H]2SC1 | remained unaltered
CO/N=C(\C(=O)N[C@@H]1C(=O)N2C(C(=O)[O-])=C(C[N+]3(C)CCCC3)CS[C@H]12)c1csc(N)n1 [cefepime] | remained unaltered
CC(C)(O/N=C(\C(=O)N[C@@H]1C(=O)N2C(C(=O)[O-])=C(C[n+]3ccccc3)CS[C@H]12)c1csc(N)n1)C(=O)O | remained unaltered
CCN1CCN(C(=O)N[C@@H](C(=O)N[C@@H]2C(=O)N3C(C(=O)O)=C(CSc4nnnn4C)CS[C@H]23)c2ccc(O)cc2)C(=O)C1=O | remained unaltered

Read the next record carefully.
(Q) Give the measured levels of resistance to the cephalosporin with peptides of N[C@@H](C(=O)N[C@@H]1C(=O)N2C(C(=O)O)=C(Cl)CS[C@H]12)c1ccccc1 .
(A) remained unaltered
